Value source: ChEMBL document CHEMBL1134533

Read-out record for Dihydrofolate reductase (Pneumocystis carinii): pIC50
pIC50 is a log-scale quantity: -log10 of the concentration expressed in molar.

Problem: Requested field: pIC50. Item: Cc1c(COC(=O)c2ccccc2)cnc2nc(N)nc(N)c12
Solution: 6.60

Problem: Request: Nc1nc(N)c2nc(COC(=O)c3ccccc3)cnc2n1
Solution: 5.01

Problem: Request: Nc1nc(N)c2cc(COC(=O)c3ccccc3)cnc2n1
Solution: 5.26

Problem: Request: Nc1nc(N)c2cc(C(=O)OCc3ccccc3)ccc2n1
Solution: 5.60
